# assayNotes: Moisture absorption test on amorphous α-D-glucosyl α-D-galactoside
# Type: physicochemical
# studyConditions: relative humidity 60%, 25° C., storage for seven days
assayEndpoint: Crystallinity
Write down the value, and be sure its unit follows.

The measured Crystallinity associated with OC[C@H]1O[C@H](O[C@H]2O[C@H](CO)[C@@H](O)[C@H](O)[C@H]2O)[C@H](O)[C@@H](O)[C@H]1O [amorphous α-D-glucosyl α-D-galactoside, α-D-glucosyl α-D-galactoside] reads 71%
